All values here come from patent US20260109707A1.

Measured GI50 values are reported for all entries that follow.
Tested on: T-Rex 293 cell line SC3 cells lacking increased expression of androgen receptor protein
testProtocol: Cellular growth inhibition assay, T-Rex 293 SC3 cells without doxycycline (CellTiter-Glo, 72 hours)
Format: cell-based
experimentalSetup: 72 h, T-Rex 293 cell line SC3 cells not exposed to doxycycline (lacking increased androgen receptor expression)
observedProperty: GI50

>>> reportedmeasurement("Cc1sc2c(c1C)C(c1ccc(Cl)cc1)=N[C@@H](CC(=O)NCCCCCOC1CCN(c3ccc(C(=O)N[C@H]4CC[C@H](Oc5ccc(C#N)c(Cl)c5)CC4)nn3)CC1)c1nnc(C)n1-2")
"< 0.5 µM"
>>> reportedmeasurement("Cc1sc2c(c1C)C(c1ccc([C@H]3C[C@@H](C4CCN(c5ccc(C(=O)N[C@H]6CC[C@H](Oc7ccc(C#N)c(Cl)c7)CC6)nn5)CC4)C3)cc1)=N[C@H](Cc1ncco1)c1nnc(C)n1-2")
"< 0.5 µM"
>>> reportedmeasurement("Cc1sc2c(c1C)C(c1ccc(OC3(C)CC4(CN(c5ccc(C(=O)N[C@H]6CC[C@H](Oc7ccc(C#N)c(Cl)c7)CC6)nn5)C4)C3)cc1)=N[C@@H](C)c1nnc(C)n1-2")
"< 0.5 µM"
>>> reportedmeasurement("Cc1sc2c(c1C)C(c1ccc(OC[C@H]3CC[C@]4(C3)CN(c3ccc(C(=O)N[C@H]5CC[C@H](Oc6ccc(C#N)c(Cl)c6)CC5)nn3)CCO4)cn1)=N[C@@H](Cc1ncco1)c1nnc(C)n1-2")
"< 0.5 µM"
>>> reportedmeasurement("CC[C@@H]1N=C(c2ccc(N3CC4(CC(CCc5ccc(C(=O)N[C@H]6CC[C@H](Oc7ccc(C#N)c(Cl)c7)CC6)nn5)C4)C3)cc2)c2c(sc(C)c2C)-n2c(C)nnc21")
"> 3 µM"
